Assignment: determine reported Purity % for the given molecules.
Assay type: physicochemical
assay-context: 40° C., 5 days
Where a SMILES comes first, the peptide text is derived from it. [ ]: non-standard residue; d: D form. The star is where a group is joined. Gly(N-(2R-Ph-propyl)) = C[C@@H](CNCC(=O)O)c1ccccc1; Piperidin1yl(4-NH2,4-COOH) = NC1(C(=O)O)CCN(*)CC1
Report the value in % with no unit label.

Looking for the measured Purity % of CC(C)C[C@@H](NC(=O)[C@@H](Cc1ccccc1)NC(=O)CNC[C@H](C)c1ccccc1)C(=O)N[C@H](CCCCN)C(=O)N1CCC(N)(C(=O)O)CC1 [Embodiment 6] (H-[Gly(N-(2R-Ph-propyl))][dF][dL][dK]-{Piperidin1yl(4-NH2,4-COOH)}) , can you help?
99.03

Any idea what its Purity % is? The molecule is CC(C)C[C@@H](NC(=O)[C@@H](Cc1ccccc1)NC(=O)CNC[C@H](C)c1ccccc1)C(=O)N[C@H](CCCCN)C(=O)N1CCC(N)(C(=O)O)CC1 [Embodiment 2] (H-[Gly(N-(2R-Ph-propyl))][dF][dL][dK]-{Piperidin1yl(4-NH2,4-COOH)})
96.23

Recorded Purity % of CC(C)C[C@@H](NC(=O)[C@@H](Cc1ccccc1)NC(=O)CNC[C@H](C)c1ccccc1)C(=O)N[C@H](CCCCN)C(=O)N1CCC(N)(C(=O)O)CC1 [Embodiment 4] (H-[Gly(N-(2R-Ph-propyl))][dF][dL][dK]-{Piperidin1yl(4-NH2,4-COOH)}) , please.
86.31

What value of Purity % has been reported for the following molecule? CC(C)C[C@@H](NC(=O)[C@@H](Cc1ccccc1)NC(=O)CNC[C@H](C)c1ccccc1)C(=O)N[C@H](CCCCN)C(=O)N1CCC(N)(C(=O)O)CC1 [Embodiment 20] (H-[Gly(N-(2R-Ph-propyl))][dF][dL][dK]-{Piperidin1yl(4-NH2,4-COOH)})
97.60

---

Format: physicochemical
assay-context: 25° C., 60% Rh, initial
Where a SMILES comes first, the peptide text is derived from it. [ ]: non-standard residue; d: D form. The star is where a group is joined. Gly(N-(2R-Ph-propyl)) = C[C@@H](CNCC(=O)O)c1ccccc1; Piperidin1yl(4-NH2,4-COOH) = NC1(C(=O)O)CCN(*)CC1
I'd be grateful if you could share measured Purity % for these entries.

What value of Purity % has been reported for the following compound? CC(C)C[C@@H](NC(=O)[C@@H](Cc1ccccc1)NC(=O)CNC[C@H](C)c1ccccc1)C(=O)N[C@H](CCCCN)C(=O)N1CCC(N)(C(=O)O)CC1 [Embodiment 3] (H-[Gly(N-(2R-Ph-propyl))][dF][dL][dK]-{Piperidin1yl(4-NH2,4-COOH)})
99.59%

// returns reported Purity % for input CC(C)C[C@@H](NC(=O)[C@@H](Cc1ccccc1)NC(=O)CNC[C@H](C)c1ccccc1)C(=O)N[C@H](CCCCN)C(=O)N1CCC(N)(C(=O)O)CC1 [Embodiment 11] (H-[Gly(N-(2R-Ph-propyl))][dF][dL][dK]-{Piperidin1yl(4-NH2,4-COOH)})
99.50%

Looking for the measured Purity % of CC(C)C[C@@H](NC(=O)[C@@H](Cc1ccccc1)NC(=O)CNC[C@H](C)c1ccccc1)C(=O)N[C@H](CCCCN)C(=O)N1CCC(N)(C(=O)O)CC1 [Embodiment 9] (H-[Gly(N-(2R-Ph-propyl))][dF][dL][dK]-{Piperidin1yl(4-NH2,4-COOH)}) , can you help?
99.54%

// lookup Purity % for CC(C)C[C@@H](NC(=O)[C@@H](Cc1ccccc1)NC(=O)CNC[C@H](C)c1ccccc1)C(=O)N[C@H](CCCCN)C(=O)N1CCC(N)(C(=O)O)CC1 [Embodiment 15] (H-[Gly(N-(2R-Ph-propyl))][dF][dL][dK]-{Piperidin1yl(4-NH2,4-COOH)})
99.64%

---

Field: Purity %. Provide a value for each of the compounds that follow.
Type: physicochemical
assay-context: 25° C., 60% Rh, 6 months
Where a SMILES comes first, the peptide text is derived from it. [ ]: non-standard residue; d: D form. The star is where a group is joined. Gly(N-(2R-Ph-propyl)) = C[C@@H](CNCC(=O)O)c1ccccc1; Piperidin1yl(4-NH2,4-COOH) = NC1(C(=O)O)CCN(*)CC1
Dear colleague, please return just the value in %, with no unit written.

Consider the compound shown here: CC(C)C[C@@H](NC(=O)[C@@H](Cc1ccccc1)NC(=O)CNC[C@H](C)c1ccccc1)C(=O)N[C@H](CCCCN)C(=O)N1CCC(N)(C(=O)O)CC1 [Embodiment 11] (H-[Gly(N-(2R-Ph-propyl))][dF][dL][dK]-{Piperidin1yl(4-NH2,4-COOH)}) What is its recorded Purity %?
99.5

// returns reported Purity % for input CC(C)C[C@@H](NC(=O)[C@@H](Cc1ccccc1)NC(=O)CNC[C@H](C)c1ccccc1)C(=O)N[C@H](CCCCN)C(=O)N1CCC(N)(C(=O)O)CC1 [Embodiment 15] (H-[Gly(N-(2R-Ph-propyl))][dF][dL][dK]-{Piperidin1yl(4-NH2,4-COOH)})
99.64

So what's the measured Purity % for this one? CC(C)C[C@@H](NC(=O)[C@@H](Cc1ccccc1)NC(=O)CNC[C@H](C)c1ccccc1)C(=O)N[C@H](CCCCN)C(=O)N1CCC(N)(C(=O)O)CC1 [Embodiment 9] (H-[Gly(N-(2R-Ph-propyl))][dF][dL][dK]-{Piperidin1yl(4-NH2,4-COOH)})
99.51

# lookup: Purity % of CC(C)C[C@@H](NC(=O)[C@@H](Cc1ccccc1)NC(=O)CNC[C@H](C)c1ccccc1)C(=O)N[C@H](CCCCN)C(=O)N1CCC(N)(C(=O)O)CC1 [Embodiment 3] (H-[Gly(N-(2R-Ph-propyl))][dF][dL][dK]-{Piperidin1yl(4-NH2,4-COOH)})
99.57

---

Assay type: physicochemical
assay-context: 25° C., 60% Rh, 3 months
Where a SMILES comes first, the peptide text is derived from it. [ ]: non-standard residue; d: D form. The star is where a group is joined. Gly(N-(2R-Ph-propyl)) = C[C@@H](CNCC(=O)O)c1ccccc1; Piperidin1yl(4-NH2,4-COOH) = NC1(C(=O)O)CCN(*)CC1
endpoint-name: Purity % (%)
The reply should contain only the number, in %.

Report Purity % for CC(C)C[C@@H](NC(=O)[C@@H](Cc1ccccc1)NC(=O)CNC[C@H](C)c1ccccc1)C(=O)N[C@H](CCCCN)C(=O)N1CCC(N)(C(=O)O)CC1 [Embodiment 15] (H-[Gly(N-(2R-Ph-propyl))][dF][dL][dK]-{Piperidin1yl(4-NH2,4-COOH)}) please.
99.63

Given the entry CC(C)C[C@@H](NC(=O)[C@@H](Cc1ccccc1)NC(=O)CNC[C@H](C)c1ccccc1)C(=O)N[C@H](CCCCN)C(=O)N1CCC(N)(C(=O)O)CC1 [Embodiment 11] (H-[Gly(N-(2R-Ph-propyl))][dF][dL][dK]-{Piperidin1yl(4-NH2,4-COOH)}) , report its measured Purity %.
99.52

# Purity % lookup, item CC(C)C[C@@H](NC(=O)[C@@H](Cc1ccccc1)NC(=O)CNC[C@H](C)c1ccccc1)C(=O)N[C@H](CCCCN)C(=O)N1CCC(N)(C(=O)O)CC1 [Embodiment 9] (H-[Gly(N-(2R-Ph-propyl))][dF][dL][dK]-{Piperidin1yl(4-NH2,4-COOH)})
99.51

I am curious: what Purity % value has been reported for CC(C)C[C@@H](NC(=O)[C@@H](Cc1ccccc1)NC(=O)CNC[C@H](C)c1ccccc1)C(=O)N[C@H](CCCCN)C(=O)N1CCC(N)(C(=O)O)CC1 [Embodiment 3] (H-[Gly(N-(2R-Ph-propyl))][dF][dL][dK]-{Piperidin1yl(4-NH2,4-COOH)}) ?
99.61

---

Assign Purity % to each entry below.
Assay type: physicochemical
assay-context: 25° C., 60% RH, nitrogen protection, 1 month
Where a SMILES comes first, the peptide text is derived from it. [ ]: non-standard residue; d: D form. The star is where a group is joined. Gly(N-(2R-Ph-propyl)) = C[C@@H](CNCC(=O)O)c1ccccc1; Piperidin1yl(4-NH2,4-COOH) = NC1(C(=O)O)CCN(*)CC1
Kindly provide the numeric value in % only, without the unit symbol.

Recorded Purity % of CC(C)C[C@@H](NC(=O)[C@@H](Cc1ccccc1)NC(=O)CNC[C@H](C)c1ccccc1)C(=O)N[C@H](CCCCN)C(=O)N1CCC(N)(C(=O)O)CC1 [Embodiment 11] (H-[Gly(N-(2R-Ph-propyl))][dF][dL][dK]-{Piperidin1yl(4-NH2,4-COOH)}) , please.
99.50

Reported Purity %, molecule CC(C)C[C@@H](NC(=O)[C@@H](Cc1ccccc1)NC(=O)CNC[C@H](C)c1ccccc1)C(=O)N[C@H](CCCCN)C(=O)N1CCC(N)(C(=O)O)CC1 [Embodiment 3] (H-[Gly(N-(2R-Ph-propyl))][dF][dL][dK]-{Piperidin1yl(4-NH2,4-COOH)}) : ____
99.58

// lookup Purity % for CC(C)C[C@@H](NC(=O)[C@@H](Cc1ccccc1)NC(=O)CNC[C@H](C)c1ccccc1)C(=O)N[C@H](CCCCN)C(=O)N1CCC(N)(C(=O)O)CC1 [Embodiment 9] (H-[Gly(N-(2R-Ph-propyl))][dF][dL][dK]-{Piperidin1yl(4-NH2,4-COOH)})
99.52

# input molecule: CC(C)C[C@@H](NC(=O)[C@@H](Cc1ccccc1)NC(=O)CNC[C@H](C)c1ccccc1)C(=O)N[C@H](CCCCN)C(=O)N1CCC(N)(C(=O)O)CC1 [Embodiment 15] (H-[Gly(N-(2R-Ph-propyl))][dF][dL][dK]-{Piperidin1yl(4-NH2,4-COOH)}) ; wanted: its Purity %
9.65
